biological target: T1, IL-9-His recombinant protein (UniProt P15248 19-144); experiment: ELISA on IL-9-His, 293F culture supernatant, antibody concentration 2 µg/mL (second well)
T1 construct: range 19-144; used as coating antigen in the ELISAs; also called IL9 (19-144)-His; not shown: His tag, C-terminal by the vector name
T1 sequence (P15248 19-144 limits assumed, form in doubt): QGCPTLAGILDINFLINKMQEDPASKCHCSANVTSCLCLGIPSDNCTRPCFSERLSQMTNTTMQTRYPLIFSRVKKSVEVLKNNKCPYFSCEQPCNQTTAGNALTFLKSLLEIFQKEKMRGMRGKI
metric: ELISA OD450 (OD450)
Number only, in OD450; omit the unit.

binder: 22-F2-E9-C8 chimeric antibody (CA4) (antibody, V domains shown) VH: EVQVVESGPGLVKPSQSLSLTCSVTGSSFTSGYYWNWIRQFPGNKLEWMGYIRYDGSNNYNPSLKNRISITRDTSKNQFFLKLNSVTSEDTATYYCASYGSSYDAMDYWGQGTSVTVSS VL: DIQLTQPPASLSASVGETVTITCRASENIDSYLAWYQQKQGKSPQLLVYAATLLADGVPSRFSGSGSGTQYSLKINSLQSEDVARYYCQHYYSTPWTFGGGTKLELK
ELISA OD450 / OD450: 2.43

Req: Query: ELISA OD450; subject: 38-D8-C7-G9 chimeric antibody (CA1) (antibody, V domains shown, also called CA1 antibody; human-mouse chimeric antibody CA1) VH: EVQLKQSGAELMKPGASVKLSCKATGYTFTGYWIEWVKLRPGHGLEWIGEILPGSGSTNYNEEFKGKATFTADTSSNTAYMQLNSLTTEDSAIYYCARRTYYYGIPEDYWGQGTSVTVSS VL: DIVMTQSQKFMSTSVGDRVSVTCKASQNVGTNVAWHQQKPGQSPKPLIYSASYRYSGVPDRFTGSGSGTDFTLTISNVQSEDLAEYFCQQYNSYPLTFGAGTKLELK
Resp: 2.6

Req: Would you mind doing 29-B9-F5-B6 chimeric antibody (CA3) (antibody, V domains shown) VH: EVQLQESGAELMKPGASVKISCKATGYTFSSYWIEWVKQRPGHGLEWIGQILPGSGSNNYNERFKGKATFTADTSSNTAYMQLSSLTSEDSAVYYCAREGNYGEAWFAYWGQGTLVTVSA VL: DILLTQSPATLSVTPGDSVSLSCRASQSISNNLHWYQQKSHESPRLLIKYASQSMSGIPSRFSGSGSGTDFTLSINSVETEDFGMYFCQQSNSWPLTFGAGTKLELK as well?
Resp: 2.45

Req: Would you mind doing 31-D6-B8-B8 chimeric antibody (CA2) (antibody, V domains shown) VH: EVQLKESGPGLVKPSQSLSLTCSVTGYSSTSGYYWNWIRQFPGNKLEWMGYIRYDGSSNHNPSLKNRISITRDTSKNQFFLKLNSVTTEDTATYYCASYGITYDAMDYWGQGTSVTVSS VL: DIQLTQPPASLSASVGETVTITCRASENIDSYLAWYQQKQGKSPQLLVYAATLLADGVPSRFSGSGSGTQYSLKINSLQSEDVARYYCQHYYSTPWTFGGGTKLELK as well?
Resp: 2.46

Data provenance: patent US20250122278A1
